biological target: T1, human CD71 extracellular domain (human, UniProt P02786 89-760, biotinylated); experiment: solution ELISA screen (luminescence)
T1 construct: extracellular domain; also called hCD71; huCD71 ECD
T1 sequence (P02786 other isoform, or with tags, fused parts or gaps): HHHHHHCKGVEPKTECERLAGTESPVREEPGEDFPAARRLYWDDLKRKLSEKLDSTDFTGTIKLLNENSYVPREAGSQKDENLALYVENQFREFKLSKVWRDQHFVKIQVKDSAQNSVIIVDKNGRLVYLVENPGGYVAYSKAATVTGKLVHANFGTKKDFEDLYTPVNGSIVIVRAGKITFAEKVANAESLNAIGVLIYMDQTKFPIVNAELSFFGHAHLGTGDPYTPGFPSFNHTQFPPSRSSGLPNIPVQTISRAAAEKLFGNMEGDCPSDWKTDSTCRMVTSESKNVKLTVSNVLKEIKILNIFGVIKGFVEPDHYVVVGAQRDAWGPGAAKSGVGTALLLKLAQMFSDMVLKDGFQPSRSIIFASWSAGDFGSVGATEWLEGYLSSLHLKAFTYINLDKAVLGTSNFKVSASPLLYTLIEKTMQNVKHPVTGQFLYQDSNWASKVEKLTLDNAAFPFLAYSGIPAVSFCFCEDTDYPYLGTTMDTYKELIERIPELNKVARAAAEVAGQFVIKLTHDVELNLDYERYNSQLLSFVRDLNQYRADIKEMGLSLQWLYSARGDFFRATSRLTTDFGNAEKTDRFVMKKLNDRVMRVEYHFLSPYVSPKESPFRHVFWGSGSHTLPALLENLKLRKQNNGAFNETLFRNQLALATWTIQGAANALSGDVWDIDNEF
Reported Endpoint: RLU (RLU)

{"Binder": "SEQ ID NO 241 (designed binder, not shown: small tags and cut ends) MLPAPKNLVVSRVTEDSARLSWTAPDAAFDSFFIGYLEPQPPGEAIHLGVPGSERSYDLTGLKPGTEYNVTIQGVKGGFPSIPLFASFTT", "Endpoint Value": "3.1e+06"}
{"Binder": "SEQ ID NO 264 (designed binder, not shown: small tags and cut ends) MLPAPKNLVVSRVTEDSARLSWTAPDAAFDSFYIAYAEPRPDGEAINLSVPGSERSYDLTGLKPGTEYSVLIHGVKGGLLSSPLDAYFTT", "Endpoint Value": 368000}
{"Binder": "SEQ ID NO 217 (designed binder, not shown: small tags and cut ends) MLPAPKNLVVSRVTEDSARLSWTAPDAAFDSFYIAYAEPRPDGEAIILEVPGSERSYDLTGLKPGTEYSVLIHGVKGGLLSSPLRAVFTT", "Endpoint Value": "3.48e+06"}
{"Binder": "SEQ ID NO 204 (designed binder, not shown: small tags and cut ends) MLPAPKNLVVSRVTEDSARLSWTAPDAAFDSFFIGYLEPQPPGEAILLWVPGSERSYDLTGLKPGTEYNVTIQGVKGGFPSQFTT", "Endpoint Value": "3.29e+06"}
{"Binder": "SEQ ID NO 259 (designed binder, not shown: small tags and cut ends) MLPAPKNLVVSRVTEDSARLSWTAPDAAFDSFYIAYAEPRPDGEAIQLGVPGSERSYDLTGLKPGTEYSVLIHGVKGGLLSSPLLAVFTT", "Endpoint Value": "1.26e+06"}
{"Binder": "SEQ ID NO 261 (designed binder, not shown: small tags and cut ends) MLPAPKNLVVSRVTEDSARLSWTAPDAAFDSFYIAYAEPRPDGEAILLQVPGSERSYDLTGLKPGTEYSVLIHGVKGGLLSSPLIAKFTT", "Endpoint Value": "2.39e+06"}
{"Binder": "SEQ ID NO 258 (designed binder, not shown: small tags and cut ends) MLPAPKNLVVSRVTEDSARLSWTAPDAAFDSFYIAYAEPRPDGEAILLEVPGSERSYDLTGLKPGTEYSVLIHGVKGGLLSSPLVAFFTT", "Endpoint Value": "5.4e+06"}
{"Binder": "SEQ ID NO 211 (designed binder, not shown: small tags and cut ends) MLPAPKNLVVSRVTEDSARLSWTAPDAAFDSFYIAYAEPRPDGEAIQLHVPGSERSYDLTGLKPGTEYSVLIHGVKGGLLSSPLVAIFTT", "Endpoint Value": 660000}
{"Binder": "SEQ ID NO 230 (designed binder, not shown: small tags and cut ends) MLPAPKNLVVSRVTEDSARLSWTAPDAAFDSFYIAYAEPRPDGEAIWLLVPGSERSYDLTGLKPGTEYSVLIHGVKGGLLSSPLVAFFTT", "Endpoint Value": "1.1e+06"}
{"Binder": "SEQ ID NO 239 (designed binder, not shown: small tags and cut ends) MLPAPKNLVVSRVTEDSARLSWTAPDAAFDSFYIAYAEPRPDGEAIQLVVPGSERSYDLTGLKPGTEYSVLIHGVKGGLLSSPLYAIFTT", "Endpoint Value": 559000}
{"Binder": "SEQ ID NO 262 (designed binder, not shown: small tags and cut ends) MLPAPKNLVVSRVTEDSARLSWTAPDAAFDSFYIAYAEPRPDGEAIVLHVPGSERSYDLTGLKPGTEYSVLIHGVKGGLLSSPLQAIFTT", "Endpoint Value": "3.94e+06"}
{"Binder": "SEQ ID NO 254 (designed binder, not shown: small tags and cut ends) MLPAPKNLVVSRVTEDSARLSWTAPDAAFDSFYIAYAEPRPDGEAILLAVPGSERSYDLTGLKPGTEYSVLIHGVKGGLLSSPLSAKFTT", "Endpoint Value": "2.24e+06"}
{"Binder": "SEQ ID NO 249 (designed binder, not shown: small tags and cut ends) MLPAPKNLVVSRVTEDSARLSWTAPDAAFDSFYIAYAEPRPDGEAIVLEVPGSERSYDLTGLKPGTEYSVLIHGVKGGLLSSPLHANFTT", "Endpoint Value": "4.94e+06"}
{"Binder": "SEQ ID NO 265 (designed binder, not shown: small tags and cut ends) MLPAPKNLVVSRVTEDSARLSWTAPDAAFDSFYIAYAEPRPDGEAIVLEVPGSERSYDLTGLKPGTEYSVLIHGVKGGLLSSPLTASFTT", "Endpoint Value": "5.77e+06"}
{"Binder": "SEQ ID NO 247 (designed binder, not shown: small tags and cut ends) MLPAPKNLVVSRVTEDSARLSWTAPDAAFDSFYIAYAEPRPDGEAILLHVPGSERSYDLTGLKPGTEYSVLIHGVKGGLLSSPLRASFTT", "Endpoint Value": "4.3e+06"}
{"Binder": "SEQ ID NO 234 (designed binder, not shown: small tags and cut ends) MLPAPKNLVVSRVTEDSARLSWTAPDAAFDSFYIAYAEPRPDGEAIVLVVPGSERSYDLTGLKPGTEYSVLIHGVKGGLLSSPLSAIFTT", "Endpoint Value": "4.51e+06"}
{"Binder": "SEQ ID NO 235 (designed binder, not shown: small tags and cut ends) MLPAPKNLVVSRVTEDSARLSWTAPDAAFDSFFIGYLEPQPPGEAIQLTVPGSERSYDLTGLKPGTEYNVTIQGVKGGFPSLPLSADFTT", "Endpoint Value": 943000}
{"Binder": "SEQ ID NO 219 (designed binder, not shown: small tags and cut ends) MLPAPKNLVVSRVTEDSARLSWTAPDAAFDSFYIAYAEPRPDGEAISLKVPGSERSYDLTGLKPGTEYSVLIHGVKGGLLSSPLEAIFTT", "Endpoint Value": 460000}
